Quick reference for kinact/KI among some compounds
# assay_target: Human Polymorphonuclear Leukocyte Elastase (Homo sapiens)
# Construct: Crude extract of human polymorphonuclear leukocytes (PMN) containing elastase activity; from tissue; host or cells: human polymorphonuclear leukocytes (crude extract)
# Sequence (P08246 30-267): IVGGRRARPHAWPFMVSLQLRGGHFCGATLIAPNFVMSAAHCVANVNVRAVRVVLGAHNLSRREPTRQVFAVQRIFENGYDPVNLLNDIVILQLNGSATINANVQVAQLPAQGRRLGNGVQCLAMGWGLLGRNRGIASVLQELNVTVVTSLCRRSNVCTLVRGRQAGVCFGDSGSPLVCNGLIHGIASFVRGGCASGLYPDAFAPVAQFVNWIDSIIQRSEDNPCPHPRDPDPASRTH
# assay_procedure: Enzyme assay for inhibition of human polymorphonuclear leukocyte elastase via hydrolysis of Boc-AAPAN or Boc-AAPVN
# Format: biochemical
# measurement_context: pH 7.5, second order rate constant for inactivation of the enzyme, expressed to the nearest thousand, read-out: Kobs/[I]
assay_endpoint: kinact/KI (M⁻¹ s⁻¹)

- CCC[C@@H](NC(=O)N1C(=O)C(CC)(CC)[C@@H]1Oc1ccc(CC(=O)NCC(=O)O)cc1)c1ccc(C)cc1: 876000
- CCC[C@@H](NC(=O)N1C(=O)C(CC)(CC)[C@@H]1Oc1ccc(C(=O)N(C)CC(c2ccccc2)N(C)C)cc1)c1ccc(C)cc1 (stereo partly shown): 1.05e+06
- CCC[C@@H](NC(=O)N1C(=O)C(CC)(CC)[C@@H]1Oc1ccc(C(=O)N2CCNCC2)cc1)c1ccc(C)cc1: 1.1e+06
- CCC[C@@H](NC(=O)N1C(=O)C(CC)(CC)[C@@H]1Oc1ccc(C(=O)N(CCC)CCC)cc1)c1ccc(C)cc1: 990000
- CCC[C@@H](NC(=O)N1C(=O)C(CC)(CC)[C@@H]1Oc1ccc(C(=O)OCCN(C)C(C)=O)cc1)c1ccc(C)cc1 (relative stereo): 1.56e+06
- CCC[C@@H](NC(=O)N1C(=O)C(CC)(CC)[C@@H]1Oc1ccc(C(=O)N2CCN(CC(=O)OCC)CC2)cc1)c1ccc(C)cc1: 1.57e+06
- CCC[C@@H](NC(=O)N1C(=O)C(CC)(CC)[C@@H]1Oc1ccc(C(=O)OCC(C)(C)N(C)C)cc1)c1ccc(C)cc1: 1.47e+06

Entry source: patent EP0595557A1
